- System: Salmonella typhimurium ATCC 14028
- measurement_description: Antibacterial activity, MIC
- Format: cell-based
- protocol_conditions: Salmonella enterica; ATCC 14028; agar two-fold dilution, 37° C., 20 hours; read-out: MIC
Recorded MIC values for a group of molecules are listed next.
Numeric only. Scale: µg/mL

The examples below pair each entry with its known result.
C#CCO/N=C(\C(=O)NC1C(=O)N2C(C(=O)[O-])=C(CSc3nc(N)cc(N)[n+]3N)CSC12)c1csc(N)n1 (stereo not shown) [Compound I-18]
0.25
CCO/N=C(\C(=O)NC1C(=O)N2C(C(=O)[O-])=C(CSc3nc(N)cc(N)[n+]3CC)CSC12)c1nsc(N)n1 (stereo not shown) [Compound I-21]
0.5
CCC[n+]1c(N)cc(N)nc1SCC1=C(C(=O)[O-])N2C(=O)C(NC(=O)/C(=N\OC(C)C(=O)O)c3csc(N)n3)C2SC1 (stereo not shown) [Compound I-45]
0.25

Consider the additional molecule presented here.
// returns reported MIC for input C=CC[n+]1c(N)cc(N)nc1SCC1=C(C(=O)[O-])N2C(=O)C(NC(=O)/C(=N\OC(C)C(=O)O)c3csc(N)n3)C2SC1 (stereo not shown) [Compound I-6]
0.25

----------
- measurement_description: In-vivo absorbency (plasma concentrations & pharmacokinetic parameters)
- Set-up: species or system SD rat (male)
- protocol_conditions: plasma; 120 min; SD male rat, iv 20 mg/kg; read-out: Plasma Conc.
measure: concentration at 2 h (ng/mL)
Numeric only. Scale: ng/mL

The examples below pair each entry with its known result.
C[n+]1c(N)cc(N)nc1SCC1=C(C(=O)[O-])N2C(=O)C(NC(=O)/C(=N\OC(C)(C)C(=O)O)c3csc(N)n3)[C@H]2SC1 (some centres unmarked) [Compound I-1]
1800
Cc1c(N)nc(SCC2=C(C(=O)[O-])N3C(=O)C(NC(=O)/C(=N\OC(C)(C)C(=O)O)c4csc(N)n4)C3SC2)[n+](N)c1N (centres unmarked) [Compound I-34]
1200
CCc1c(N)nc(SCC2=C(C(=O)[O-])N3C(=O)C(NC(=O)/C(=N\OC(C)(C)C(=O)O)c4csc(N)n4)C3SC2)[n+](CC)c1N (centres unmarked) [Compound I-33]
1200
CC(C)(O/N=C(\C(=O)NC1C(=O)N2C(C(=O)[O-])=C(CSc3nc(N)cc(N)[n+]3N)CS[C@H]12)c1csc(N)n1)C(=O)O (some centres unmarked) [Compound I-15]
600
CCO/N=C(\C(=O)NC1C(=O)N2C(C(=O)[O-])=C(CSc3nc(N)cc(N)[n+]3N)CSC12)c1csc(N)n1 (centres unmarked) [Compound I-16]
1900
C[n+]1c(N)cc(N)nc1SCC1=C(C(=O)[O-])N2C(=O)C(NC(=O)/C(=N\OCC(=O)O)c3csc(N)n3)C2SC1 (centres unmarked) [Compound I-7]
1900

// returns reported concentration at 2 h for input CC[n+]1c(N)cc(N)nc1SCC1=C(C(=O)[O-])N2C(=O)C(NC(=O)/C(=N\OCC(=O)O)c3csc(N)n3)C2SC1 (centres unmarked) [Compound I-8]
2700

Would you kindly repeat that for CCc1c(N)nc(SCC2=C(C(=O)[O-])N3C(=O)C(NC(=O)/C(=N\OC(C)(C)C(=O)O)c4csc(N)n4)C3SC2)[n+](C)c1N (centres unmarked) [Compound I-31] ?
1600

----------
- Tested on: Escherichia coli ATCC 10536
measure: MIC (µg/mL)
Numeric only. Scale: µg/mL

Given the entry C=CC[n+]1c(N)cc(N)nc1SCC1=C(C(=O)[O-])N2C(=O)C(NC(=O)/C(=N\OCC(=O)O)c3csc(N)n3)C2SC1 (stereo not drawn) [Compound I-9] , what MIC was observed with Escherichia coli ATCC 10536?
0.031

Would you kindly repeat that for CC(C)(O/N=C(\C(=O)NC1C(=O)N2C(C(=O)[O-])=C(CSc3nc(N)cc(N)[n+]3N)CSC12)c1nsc(N)n1)C(=O)O (stereo not drawn) [Compound I-13] ?
0.13

Would you kindly repeat that for CO/N=C(\C(=O)NC1C(=O)N2C(C(=O)[O-])=C(CSc3nc(N)cc(N)[n+]3C)CSC12)c1csc(N)n1 (stereo not drawn) [Compound I-10] ?
0.063

----------
Recorded MIC values for a group of compounds are listed next.
- Test system: Enterobacter aerogenes ATCC 29751
- measurement_description: Antibacterial activity, MIC
- Format: cell-based
- protocol_conditions: Klebsiella aerogenes, ATCC29751; ATCC 29751; agar two-fold dilution, 37° C., 20 hours; read-out: MIC
Numeric only. Scale: µg/mL

The examples below pair each entry with its known result.
C=CC[n+]1c(N)cc(N)nc1SCC1=C(C(=O)[O-])N2C(=O)C(NC(=O)/C(=N\OC(C)(C)C(=O)O)c3csc(N)n3)C2SC1 (stereo not drawn)
2
CC(O/N=C(\C(=O)NC1C(=O)N2C(C(=O)[O-])=C(CSc3nc(N)cc(N)[n+]3C)CSC12)c1csc(N)n1)C(=O)O (stereo not drawn)
1

Consider the additional compound presented here.
Given the entry CCO/N=C(\C(=O)NC1C(=O)N2C(C(=O)[O-])=C(CSc3nc(N)cc(N)[n+]3C)CSC12)c1csc(N)n1 (stereo not drawn) , what MIC was observed with Enterobacter aerogenes ATCC 29751?
0.5

----------
- System: Enterobacter aerogenes ATCC 29751
- measurement_description: Antibacterial activity, MIC
- Format: cell-based
- protocol_conditions: Klebsiella aerogenes, ATCC29751; ATCC 29751; agar two-fold dilution, 37° C., 20 hours; read-out: MIC
Recorded MIC values for a group of compounds are listed next.
Numeric only. Scale: µg/mL

The examples below pair each entry with its known result.
CCC[n+]1c(N)cc(N)nc1SCC1=C(C(=O)[O-])N2C(=O)C(NC(=O)/C(=N\OC(C)(C)C(=O)O)c3nsc(N)n3)C2SC1 (stereo not shown) [Compound I-28]
4
CCC[n+]1c(N)cc(N)nc1SCC1=C(C(=O)[O-])N2C(=O)C(NC(=O)/C(=N\OC(C)C(=O)O)c3csc(N)n3)C2SC1 (stereo not shown) [Compound I-45]
1
CC(O/N=C(\C(=O)NC1C(=O)N2C(C(=O)[O-])=C(CSc3nc(N)cc(N)[n+]3N)CSC12)c1csc(N)n1)C(=O)O (stereo not shown) [Compound I-14]
0.5
CO/N=C(\C(=O)NC1C(=O)N2C(C(=O)[O-])=C(CSc3nc(N)cc(N)[n+]3N)CSC12)c1csc(N)n1 (stereo not shown) [Compound I-19]
0.25
CCO/N=C(\C(=O)NC1C(=O)N2C(C(=O)[O-])=C(CSc3nc(N)cc(N)[n+]3CC)CSC12)c1nsc(N)n1 (stereo not shown) [Compound I-21]
0.5
CO/N=C(\C(=O)NC1C(=O)N2C(C(=O)[O-])=C(CSc3nc(N)cc(N)[n+]3C)CSC12)c1csc(N)n1 (stereo not shown) [Compound I-10]
0.5
CCO/N=C(\C(=O)NC1C(=O)N2C(C(=O)[O-])=C(CSc3nc(N)cc(N)[n+]3-c3ccc(Cl)cc3)CSC12)c1csc(N)n1 (stereo not shown) [Compound I-40]
2
COc1cccc(OC)c1-[n+]1c(N)cc(N)nc1SCC1=C(C(=O)[O-])N2C(=O)C(NC(=O)/C(=N\OC(C)(C)C(=O)O)c3csc(N)n3)C2SC1 (stereo not shown) [Compound I-43]
2
CC[n+]1c(N)cc(N)nc1SCC1=C(C(=O)[O-])N2C(=O)C(NC(=O)/C(=N\OC(C)C(=O)O)c3csc(N)n3)C2SC1 (stereo not shown) [Compound I-5]
0.5
C[n+]1c(N)cc(N)nc1SCC1=C(C(=O)[O-])N2C(=O)C(NC(=O)/C(=N\OCC(=O)O)c3csc(N)n3)C2SC1 (stereo not shown) [Compound I-7]
0.5

// returns reported MIC for input CCc1c(N)nc(SCC2=C(C(=O)[O-])N3C(=O)C(NC(=O)/C(=N\OC(C)(C)C(=O)O)c4csc(N)n4)C3SC2)[n+](CC)c1N (stereo not shown) [Compound I-33]
4

Would you kindly repeat that for C=CC[n+]1c(N)cc(N)nc1SCC1=C(C(=O)[O-])N2C(=O)C(NC(=O)/C(=N\OCC(=O)O)c3csc(N)n3)C2SC1 (stereo not shown) [Compound I-9] ?
1

Would you kindly repeat that for CCC[n+]1c(N)cc(N)nc1SCC1=C(C(=O)[O-])N2C(=O)C(NC(=O)/C(=N\OCC)c3nsc(N)n3)C2SC1 (stereo not shown) [Compound I-22] ?
1

Would you kindly repeat that for C#CCO/N=C(\C(=O)NC1C(=O)N2C(C(=O)[O-])=C(CSc3nc(N)cc(N)[n+]3CC)CSC12)c1csc(N)n1 (stereo not shown) [Compound I-47] ?
0.5

Would you kindly repeat that for C[n+]1c(N)cc(N)nc1SCC1=C(C(=O)[O-])N2C(=O)C(NC(=O)/C(=N\OC(C)(C)C(=O)O)c3csc(N)n3)[C@H]2SC1 (stereo partly shown) [Compound I-1] ?
1

Would you kindly repeat that for CC(C)(O/N=C(\C(=O)NC1C(=O)N2C(C(=O)[O-])=C(CSc3nc(N)cc(N)[n+]3N)CS[C@H]12)c1csc(N)n1)C(=O)O (stereo partly shown) [Compound I-15] ?
1
